target: MATE2K (Homo sapiens); test: Uptake ratio in MATE2K-overexpressing HEK293 cells vs empty vector (2.5 μM, 1 min, HPLC-MS/MS); assay type: cell-based; details: Table S1; 2.5 μM, 1 min
Sequence (Q86VL8 1-566 isoform Q86VL8-3): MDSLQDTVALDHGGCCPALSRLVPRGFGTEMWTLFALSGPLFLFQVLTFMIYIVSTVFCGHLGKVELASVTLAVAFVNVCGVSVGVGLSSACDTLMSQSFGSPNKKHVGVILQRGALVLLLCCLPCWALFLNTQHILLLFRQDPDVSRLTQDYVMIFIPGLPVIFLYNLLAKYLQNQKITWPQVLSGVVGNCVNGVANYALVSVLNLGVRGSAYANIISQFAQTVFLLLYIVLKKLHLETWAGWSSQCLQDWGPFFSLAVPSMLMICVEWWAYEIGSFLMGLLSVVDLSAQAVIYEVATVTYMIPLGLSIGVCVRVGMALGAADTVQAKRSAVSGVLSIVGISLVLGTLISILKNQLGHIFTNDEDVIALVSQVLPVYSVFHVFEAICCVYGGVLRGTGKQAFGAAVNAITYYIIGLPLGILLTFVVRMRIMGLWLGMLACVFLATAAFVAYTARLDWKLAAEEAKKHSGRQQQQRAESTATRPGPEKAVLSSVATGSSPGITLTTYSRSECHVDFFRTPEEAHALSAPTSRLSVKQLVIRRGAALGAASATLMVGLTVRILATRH
I'd appreciate it if you could supply MATE2K ratio in this study values for the items below.

Sample records with MATE2K ratio in this study:
# COMPOUND, MATE2K ratio in this study
measured = [
    ("NCCc1ccc(O)cc1", 1.39),
    ("CN/C(=N\\CCSCc1nc[nH]c1C)NC#N", 3.60),
    ("CC12CC3CC(C)(C1)CC(N)(C3)C2 [Memantine]", 1.18),
]

// next item, MATE2K ratio in this study requested
stdin: Query: MATE2K ratio in this study; subject: CCS(=O)(=O)N1CC(CC#N)(n2cc(-c3ncnc4[nH]ccc34)cn2)C1
stdout: 1.04

====

molecular target: MATE2K (Homo sapiens); assay: Uptake ratio in MATE2K-overexpressing HEK293 cells vs empty vector (2.5 μM, 1 min, HPLC-MS/MS); assay type: cell-based
PROPERTY: MATE2 (uptake ratio)
Answers are plain numbers.

Recorded MATE2 (uptake ratio), per entry:
# COMPOUND, TARGET OF ASSAY, PROPERTY, READOUT VALUE
records = [
    ("C[n+]1ccc(-c2ccccc2)cc1 [1-Methyl-4-phenylpyridinium]", "MATE2K (Homo sapiens)", "MATE2 (uptake ratio)", 9.05),
    ("C[N+](C)(C)C[C@H](O)CC(=O)[O-] [Carnitine]", "MATE2K (Homo sapiens)", "MATE2 (uptake ratio)", 1.13),
    ("NCCc1cc(O)c(O)cc1O [6-Hydroxydopamine]", "MATE2K (Homo sapiens)", "MATE2 (uptake ratio)", 1.24),
    ("COc1cc(CCN)ccc1O [3-Methoxy-p-tyramine]", "MATE2K (Homo sapiens)", "MATE2 (uptake ratio)", 1.39),
    ("N=C(N)NC(=N)Nc1ccc(Cl)cc1 [1-(4-Chlorophenyl)biguanide]", "MATE2K (Homo sapiens)", "MATE2 (uptake ratio)", 3.82),
    ("COc1cc2c(cc1OC)[C@@]13CCN4CC5=CCO[C@H]6CC(=O)N2[C@H]1[C@H]6[C@H]5C[C@H]43 [Brucine]", "MATE2K (Homo sapiens)", "MATE2 (uptake ratio)", 1.3),
]

// each listed compound needs a value for MATE2 (uptake ratio)
1. NCCCCCN [Cadaverine]
2. COc1ccc(CCN)cc1 [4-Methoxyphenethylamine]

stdout:
1. 0.53
2. 1.23

====

Record form. Attribute: MATE2. Fill in for each entry.
target: MATE2K (Homo sapiens); assay: Uptake ratio in MATE2K-overexpressing HEK293 cells vs empty vector (2.5 μM, 1 min, HPLC-MS/MS); assay type: cell-based
Answers are plain numbers.

# COMPOUND, MATE2
measured = [
    ("C#CCN(C)[C@H](C)Cc1ccccc1 [Selegiline (S), Selegiline]", 1.08),
    ("COCCn1c2c([n+](Cc3cnccn3)c1C)C(=O)c1ccccc1C2=O [Sepantronium]", 9.45),
    ("COc1ccc(C(CN(C)C)C2(O)CCCCC2)cc1 (centres unmarked) [Venlafaxine]", 1.3),
    ("CNCC(O)c1ccc(O)cc1.CNCC(O)c1ccc(O)cc1.O=C(O)C(O)C(O)C(=O)O (centres unmarked) [Synephrine]", 1.04),
]

Attention now shifts to the item below.
stdin: Would you kindly share the measured MATE2 for COc1cccc(C2(O)CCCCC2CN(C)C)c1 (centres unmarked) [Tramadol] ?
stdout: 1.44
